# targetSystem: ATM (Homo sapiens)
# Construct: detecting phosphorylation of Chk2 in a human non-small cell lung cancer cell line NCI-H460 (ATCC company); host or cells: NCI-H460 human non-small cell lung cancer cells
# Sequence (Q13315 whole entry): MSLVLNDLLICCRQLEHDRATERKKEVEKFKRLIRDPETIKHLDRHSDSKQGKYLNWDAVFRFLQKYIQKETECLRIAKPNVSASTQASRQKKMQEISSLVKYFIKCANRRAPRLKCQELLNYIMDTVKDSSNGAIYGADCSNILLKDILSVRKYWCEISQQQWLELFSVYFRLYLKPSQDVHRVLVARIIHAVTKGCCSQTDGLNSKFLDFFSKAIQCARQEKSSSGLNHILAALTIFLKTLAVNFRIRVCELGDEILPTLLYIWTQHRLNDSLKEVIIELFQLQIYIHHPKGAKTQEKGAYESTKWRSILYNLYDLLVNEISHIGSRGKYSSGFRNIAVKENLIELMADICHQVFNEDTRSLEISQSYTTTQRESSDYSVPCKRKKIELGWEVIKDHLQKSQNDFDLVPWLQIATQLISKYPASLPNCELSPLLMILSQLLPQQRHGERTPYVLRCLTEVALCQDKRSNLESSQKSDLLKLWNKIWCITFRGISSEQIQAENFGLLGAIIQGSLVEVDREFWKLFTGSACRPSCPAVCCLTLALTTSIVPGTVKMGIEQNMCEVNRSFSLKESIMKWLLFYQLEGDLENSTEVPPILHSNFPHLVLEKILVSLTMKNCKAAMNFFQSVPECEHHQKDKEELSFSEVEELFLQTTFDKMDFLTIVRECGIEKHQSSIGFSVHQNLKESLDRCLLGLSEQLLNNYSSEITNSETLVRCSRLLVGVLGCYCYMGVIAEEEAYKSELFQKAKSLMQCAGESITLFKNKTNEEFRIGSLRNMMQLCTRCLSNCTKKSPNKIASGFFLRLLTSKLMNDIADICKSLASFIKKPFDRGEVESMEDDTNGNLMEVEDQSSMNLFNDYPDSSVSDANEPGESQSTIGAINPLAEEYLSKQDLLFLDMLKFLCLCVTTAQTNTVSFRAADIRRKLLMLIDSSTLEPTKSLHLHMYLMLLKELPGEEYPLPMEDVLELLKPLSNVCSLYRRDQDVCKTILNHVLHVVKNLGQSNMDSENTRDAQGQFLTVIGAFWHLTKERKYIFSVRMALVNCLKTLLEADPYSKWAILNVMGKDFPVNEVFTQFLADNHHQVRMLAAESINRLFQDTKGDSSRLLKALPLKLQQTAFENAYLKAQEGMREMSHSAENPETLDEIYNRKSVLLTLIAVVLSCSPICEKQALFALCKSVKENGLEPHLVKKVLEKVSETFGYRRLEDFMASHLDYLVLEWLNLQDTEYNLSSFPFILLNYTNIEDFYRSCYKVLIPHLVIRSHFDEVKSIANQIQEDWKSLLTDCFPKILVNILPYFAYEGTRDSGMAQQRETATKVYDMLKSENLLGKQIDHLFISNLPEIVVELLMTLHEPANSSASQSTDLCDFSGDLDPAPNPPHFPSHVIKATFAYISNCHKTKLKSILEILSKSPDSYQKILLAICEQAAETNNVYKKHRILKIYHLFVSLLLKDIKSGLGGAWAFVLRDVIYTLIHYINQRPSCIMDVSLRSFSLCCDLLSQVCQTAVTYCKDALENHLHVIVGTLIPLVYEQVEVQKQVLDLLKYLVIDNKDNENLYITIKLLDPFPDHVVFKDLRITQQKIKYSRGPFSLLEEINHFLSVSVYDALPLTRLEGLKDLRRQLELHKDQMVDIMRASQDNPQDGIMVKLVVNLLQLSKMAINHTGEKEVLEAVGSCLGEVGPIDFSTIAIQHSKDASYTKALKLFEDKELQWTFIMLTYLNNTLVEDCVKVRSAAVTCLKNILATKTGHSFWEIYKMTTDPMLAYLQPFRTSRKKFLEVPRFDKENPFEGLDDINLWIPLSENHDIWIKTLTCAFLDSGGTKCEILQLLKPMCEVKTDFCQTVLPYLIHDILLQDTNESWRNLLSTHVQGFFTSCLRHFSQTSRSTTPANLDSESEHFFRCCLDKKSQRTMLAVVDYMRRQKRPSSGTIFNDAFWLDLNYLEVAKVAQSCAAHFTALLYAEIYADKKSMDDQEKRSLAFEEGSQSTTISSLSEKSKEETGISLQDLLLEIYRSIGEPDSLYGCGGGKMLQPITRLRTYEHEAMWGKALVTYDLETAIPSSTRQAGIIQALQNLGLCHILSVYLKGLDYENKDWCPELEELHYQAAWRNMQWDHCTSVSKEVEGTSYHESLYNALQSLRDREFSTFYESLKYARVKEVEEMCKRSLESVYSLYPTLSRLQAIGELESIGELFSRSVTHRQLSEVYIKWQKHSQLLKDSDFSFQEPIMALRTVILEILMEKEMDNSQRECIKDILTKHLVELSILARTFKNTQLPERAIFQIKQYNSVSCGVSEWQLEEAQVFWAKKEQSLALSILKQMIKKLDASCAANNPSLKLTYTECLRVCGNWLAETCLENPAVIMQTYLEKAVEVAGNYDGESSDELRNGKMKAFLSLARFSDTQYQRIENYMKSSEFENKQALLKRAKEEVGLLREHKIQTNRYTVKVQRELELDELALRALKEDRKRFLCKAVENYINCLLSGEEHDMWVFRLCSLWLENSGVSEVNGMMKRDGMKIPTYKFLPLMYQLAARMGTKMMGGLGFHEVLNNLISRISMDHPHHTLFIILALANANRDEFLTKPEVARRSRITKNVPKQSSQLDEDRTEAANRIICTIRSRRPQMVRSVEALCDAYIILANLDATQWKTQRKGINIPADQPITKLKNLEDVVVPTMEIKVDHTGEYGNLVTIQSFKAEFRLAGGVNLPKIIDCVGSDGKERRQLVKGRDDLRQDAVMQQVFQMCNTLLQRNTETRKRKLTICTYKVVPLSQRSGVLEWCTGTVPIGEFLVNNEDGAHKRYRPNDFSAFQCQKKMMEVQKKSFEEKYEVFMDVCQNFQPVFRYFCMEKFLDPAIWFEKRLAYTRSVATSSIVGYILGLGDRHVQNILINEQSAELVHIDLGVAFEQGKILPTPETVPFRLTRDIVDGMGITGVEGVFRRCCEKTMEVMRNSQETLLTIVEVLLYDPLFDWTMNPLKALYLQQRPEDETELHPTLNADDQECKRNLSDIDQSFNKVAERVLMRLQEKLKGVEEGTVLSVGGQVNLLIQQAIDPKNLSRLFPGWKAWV
# assayComment: ATM inhibition test (phosphorylation of Chk2 generated by ionizing radiation, AlphaScreen SureFire)
# Format: cell-based
# measurementContext: phosphorylated Chk2 in NCI-H460 cells, ionizing radiation 8Gy, 1 hour after test compound treatment; read-out: ATM inhibitory activity
pIC50: −log10 of the molar value.
propertyName: pIC50

These solved cases illustrate the format of a correct answer.
>  <molecule>
Cc1cnc(C(CC(C)(C)O)Nc2ccc3c(c2)Sc2cccc(-c4cc(N5CCOCC5)cc(=O)[nH]4)c2S3)cn1 (stereo not drawn) [Example 1-12-117]

>  <targetSystem>
ATM (Homo sapiens)

>  <pIC50>
6.30 to 7.00

$$$$
>  <molecule>
COc1cccc(CCN2CCC(Nc3ccc4c(c3)Cc3cccc(-c5cc(N6CCOCC6)cc(=O)[nH]5)c3O4)CC2)c1 [Example 2-30-11]

>  <targetSystem>
ATM (Homo sapiens)

>  <pIC50>
6.30 to 7.00

$$$$
>  <molecule>
CC(Nc1ccc2c(c1)Sc1cccc(-c3cc(N4CCOCC4)cc(=O)[nH]3)c1S2)C1CC1 (stereo not drawn) [Example 1-12-43]

>  <targetSystem>
ATM (Homo sapiens)

>  <pIC50>
5.70 to 6.30

$$$$
>  <molecule>
COc1ccnc(CNc2ccc3c(c2)Cc2cccc(-c4cc(N5CCOCC5)cc(=O)[nH]4)c2O3)c1 [Example 2-2-38]

>  <targetSystem>
ATM (Homo sapiens)

>  <pIC50>
> 7.00

$$$$
>  <molecule>
Cc1cccc(C(Nc2ccc3c(c2)Sc2cccc(-c4cc(N5CCOCC5)cc(=O)[nH]4)c2S3)C2CCN(C)C2)n1 (single isomer, unassigned) [Example 1-22-6]

>  <targetSystem>
ATM (Homo sapiens)

>  <pIC50>
> 7.00

$$$$
>  <molecule>
COc1ccc(CNc2ccc3c(c2)Cc2cccc(-c4cc(N5CCOCC5)cc(=O)[nH]4)c2O3)nc1 [Example 2-2-42]

>  <targetSystem>
ATM (Homo sapiens)

>  <pIC50>
6.30 to 7.00

$$$$
>  <molecule>
CCCCC(Nc1ccc2c(c1)Sc1cccc(-c3cc(N4CCOCC4)cc(=O)[nH]3)c1S2)[C@H](C)N (stereo partly drawn) [Example 1-20-3]

>  <targetSystem>
ATM (Homo sapiens)

>  <pIC50>
6.30 to 7.00

$$$$
>  <molecule>
CC(Nc1ccc2c(c1)Cc1cccc(-c3cc(N4CCOCC4)cc(=O)[nH]3)c1O2)c1nccs1 (stereo not drawn) [Example 2-14-43]

>  <targetSystem>
ATM (Homo sapiens)

>  <pIC50>
6.30 to 7.00

$$$$
>  <molecule>
Cc1cccc(C(C)Nc2ccc3c(c2)Cc2cccc(-c4cc(N5CCOCC5)cc(=O)[nH]4)c2O3)n1 (stereo not drawn) [Example 2-14-18]

>  <targetSystem>
ATM (Homo sapiens)

>  <pIC50>
6.30 to 7.00

$$$$
>  <molecule>
CC(CNC1CCCCC1)Nc1ccc2c(c1)Sc1cccc(-c3cc(N4CCOCC4)cc(=O)[nH]3)c1S2 (stereo not drawn) [Example 1-13-7]

>  <targetSystem>
ATM (Homo sapiens)

>  <pIC50>
6.30 to 7.00

$$$$

Endpoint output: pIC50 of CC(Nc1ccc2c(c1)Cc1cccc(-c3cc(N4CCOCC4)cc(=O)[nH]3)c1O2)c1nccc(C(F)F)n1 (stereo not drawn) [Example 2-14-62] . Value?
> 7.00

// query: O=c1cc(N2CCOCC2)cc(-c2cccc3c2Oc2ccc(NC4CCN(Cc5ccsc5)CC4)cc2C3)[nH]1 [Example 2-28-26]
6.30 to 7.00

Would you mind doing CN1CCOc2cc(CNc3ccc4c(c3)Cc3cccc(-c5cc(N6CCOCC6)cc(=O)[nH]5)c3O4)cnc21 [Example 2-2-5] as well?
6.30 to 7.00

Next: Cc1ccc(C(Nc2ccc3c(c2)Sc2cccc(-c4cc(N5CCOCC5)cc(=O)[nH]4)c2S3)C2CNCCO2)nc1 (single isomer, unassigned) [Example 1-55-2]
> 7.00

Query O=C(CNc1ccc2c(c1)Sc1cccc(-c3cc(N4CCOCC4)cc(=O)[nH]3)c1S2)N1CCCCC1 [Example 1-18-2] next
6.30 to 7.00

# repeat for O=c1cc(N2CCOCC2)cc(-c2cccc3c2Sc2ccc(NCCN4CCC(O)CC4)cc2S3)[nH]1 [Example 1-10-8]
5.70 to 6.30

Request: COc1ccncc1CN1CCC(Nc2ccc3c(c2)Cc2cccc(-c4cc(N5CCOCC5)cc(=O)[nH]4)c2O3)CC1 [Example 2-28-11]
6.30 to 7.00

What about CC(C(=O)Nc1ccc2c(c1)Sc1cccc(-c3cc(N4CCOCC4)cc(=O)[nH]3)c1S2)N1CCOCC1 (stereo not drawn) [Example 1-8] ?
5.70 to 6.30

Entry O=c1cc(N2CCOCC2)cc(-c2cccc3c2Oc2ccc(NCc4ccncc4)cc2CC3)[nH]1 [Example 2-51-3] please
5.70 to 6.30

Could you do the same for CC(Nc1ccc2c(c1)Cc1cccc(-c3cc(N4CCOCC4)cc(=O)[nH]3)c1O2)C1CC1 (stereo not drawn) [Example 2-14-70] , please?
5.70 to 6.30

// repeat for O=c1cc(N2CCOCC2)cc(-c2cccc3c2Oc2ccc([N+](=O)[O-])cc2S3)[nH]1 [Example 4-1] and report
5.70 to 6.30
